- Tested on: infectious agents (strains tested)
- procedure_details: microbe, parasite or virus in culture
- Assay type: cell-based
- condition_notes: Papiliotrema laurentii, Cryptococcus laurentii; read-out: MIC[90]
measured_property: MIC

compound	reported_measurement
C[C@@H]1[C@H](O)[C@@H](C)/C=C/C=C/C=C/C=C/C=C/C=C/C=C/[C@H](O[C@@H]2O[C@H](C)[C@@H](O)[C@H](N)[C@@H]2O)C[C@@H]2O[C@](O)(C[C@@H](O)C[C@@H](O)[C@H](O)CC[C@@H](O)C[C@@H](O)CC(=O)O[C@H]1C)C[C@H](O)[C@H]2C(=O)O	0.5 to 1 µg/mL
CCC(C)n1ncn(-c2ccc(N3CCN(c4ccc(OCC5COC(Cn6cncn6)(c6ccc(Cl)cc6Cl)O5)cc4)CC3)cc2)c1=O (stereo not shown)	0.25 to 0.5 µg/mL
C[C@@H](c1ncncc1F)[C@](O)(Cn1cncn1)c1ccc(F)cc1F	0.25 µg/mL
CCC([C@@H](C)O)n1ncn(-c2ccc(N3CCN(c4ccc(OC[C@@H]5CO[C@@](Cn6cncn6)(c6ccc(F)cc6F)C5)cc4)CC3)cc2)c1=O (stereo partly shown)	0.008 to 0.5 µg/mL
